Each record here notes measured relative viability.
tested on: SK-LU-1; test: relative viability (nuclei count vs DMSO), 5 days (fraction); higher = more cells survive; conditions: first compound 0.001 µM
API doc: respond with a numeric literal and nothing else, no unit.

Observe how each entry below is paired with its result.
Cc1cn(-c2cc(NC(=O)c3ccc(C)c(Nc4nccc(-c5cccnc5)n4)c3)cc(C(F)(F)F)c2)cn1 [Nilotinib] + C[C@@H](Oc1cc(-c2cnn(C3CCNCC3)c2)cnc1N)c1c(Cl)ccc(F)c1Cl [Crizotinib] (partner 1 µM) : 0.893
Cc1cn(-c2cc(NC(=O)c3ccc(C)c(Nc4nccc(-c5cccnc5)n4)c3)cc(C(F)(F)F)c2)cn1 [Nilotinib] + CS(=O)(=O)N1CCN(Cc2cc3nc(-c4cccc5[nH]ncc45)nc(N4CCOCC4)c3s2)CC1 [Pictilisib] (partner 1 µM) : 0.499
Cc1cn(-c2cc(NC(=O)c3ccc(C)c(Nc4nccc(-c5cccnc5)n4)c3)cc(C(F)(F)F)c2)cn1 [Nilotinib] + Cc1nc(NC(=O)N2CCC[C@H]2C(N)=O)sc1-c1ccnc(C(C)(C)C(F)(F)F)c1 [Alpelisib] (partner 2 µM) : 0.929

Item under review: Cc1cn(-c2cc(NC(=O)c3ccc(C)c(Nc4nccc(-c5cccnc5)n4)c3)cc(C(F)(F)F)c2)cn1 [Nilotinib] + COc1cccc2cc(-c3nc([C@H]4CC[C@H](C(=O)O)CC4)n4ncnc(N)c34)[nH]c12 [OSI-027] (partner 0.5 µM) . Reported relative viability?
0.313

====

system: NCI-H358; test: relative viability (nuclei count vs DMSO), 5 days (fraction); higher = more cells survive; settings: first compound 0.02 µM
property-measured: relative viability
Answer with the value's number alone.

Consider the following illustrative entries.
CN1CCN(CCOc2cc(OC3CCOCC3)c3c(Nc4c(Cl)ccc5c4OCO5)ncnc3c2)CC1 [Saracatinib] + Cc1nc(Nc2ncc(C(=O)Nc3c(C)cccc3Cl)s2)cc(N2CCN(CCO)CC2)n1 [Dasatinib] (partner 0.075 µM) : 0.168
CCNC(=O)c1noc(-c2cc(C(C)C)c(O)cc2O)c1-c1ccc(CN2CCOCC2)cc1 [Luminespib] + C[C@@H](Oc1cc(-c2cnn(C3CCNCC3)c2)cnc1N)c1c(Cl)ccc(F)c1Cl [Crizotinib] (partner 1 µM) : 0.608
CN1CCN(CCOc2cc(OC3CCOCC3)c3c(Nc4c(Cl)ccc5c4OCO5)ncnc3c2)CC1 [Saracatinib] + CCNC(=O)c1noc(-c2cc(C(C)C)c(O)cc2O)c1-c1ccc(CN2CCOCC2)cc1 [Luminespib] (partner 0.01 µM) : 0.174

// lookup relative viability for CCNC(=O)c1noc(-c2cc(C(C)C)c(O)cc2O)c1-c1ccc(CN2CCOCC2)cc1 [Luminespib] + Cc1nc(Nc2ncc(C(=O)Nc3c(C)cccc3Cl)s2)cc(N2CCN(CCO)CC2)n1 [Dasatinib] (partner 0.075 µM)
0.0956

====

test system: EPLC-272H; experiment: relative viability (nuclei count vs DMSO), 5 days (fraction); higher = more cells survive; conditions: first compound 0.02 µM
Mark each entry MET if its relative viability sits below 0.4, and NOT MET for all others.

# check: relative viability < 0.4 for CCNC(=O)c1noc(-c2cc(C(C)C)c(O)cc2O)c1-c1ccc(CN2CCOCC2)cc1 [Luminespib] + NC(=O)Nc1cc(-c2cccc(F)c2)sc1C(=O)N[C@H]1CCCNC1 [AZD7762] (partner 0.2 µM)
MET

# TODO verify relative viability < 0.4 strictly for this compound: CN1CCN(CCOc2cc(OC3CCOCC3)c3c(Nc4c(Cl)ccc5c4OCO5)ncnc3c2)CC1 [Saracatinib] + CC(C)C[C@H](NC(=O)[C@H](Cc1ccccc1)NC(=O)c1cnccn1)B(O)O [Bortezomib] (partner 0.002 µM)
NOT MET

Identify whether the compound CN1CCN(CCOc2cc(OC3CCOCC3)c3c(Nc4c(Cl)ccc5c4OCO5)ncnc3c2)CC1 [Saracatinib] + Cc1nc(Nc2ncc(C(=O)Nc3c(C)cccc3Cl)s2)cc(N2CCN(CCO)CC2)n1 [Dasatinib] (partner 0.075 µM) records relative viability below 0.4.
MET

Hello, is relative viability of the following compound strictly smaller than 0.4? CCNC(=O)c1noc(-c2cc(C(C)C)c(O)cc2O)c1-c1ccc(CN2CCOCC2)cc1 [Luminespib] + CC(C)C[C@H](NC(=O)[C@H](Cc1ccccc1)NC(=O)c1cnccn1)B(O)O [Bortezomib] (partner 0.002 µM)
NOT MET

For this compound, is relative viability lower than 0.4? CN1CCN(CCOc2cc(OC3CCOCC3)c3c(Nc4c(Cl)ccc5c4OCO5)ncnc3c2)CC1 [Saracatinib] + CC(=O)c1c(C)c2cnc(Nc3ccc(N4CCNCC4)cn3)nc2n(C2CCCC2)c1=O [Palbociclib] (partner 0.5 µM)
MET

Please check: relative viability for CCNC(=O)c1noc(-c2cc(C(C)C)c(O)cc2O)c1-c1ccc(CN2CCOCC2)cc1 [Luminespib] + C[C@@H](Oc1cc(-c2cnn(C3CCNCC3)c2)cnc1N)c1c(Cl)ccc(F)c1Cl [Crizotinib] (partner 1 µM) , strictly under 0.4 or not?
NOT MET

Quick check: does CCNC(=O)c1noc(-c2cc(C(C)C)c(O)cc2O)c1-c1ccc(CN2CCOCC2)cc1 [Luminespib] + CS(=O)(=O)CCNCc1ccc(-c2ccc3ncnc(Nc4ccc(OCc5cccc(F)c5)c(Cl)c4)c3c2)o1 [Lapatinib] (partner 2 µM) have relative viability under 0.4?
NOT MET

From: the supplement of paper PMC10307832
